Sourced from patent US20260102383A1

target: human LPAR1 (Homo sapiens); construct: host or cells: TangoEDG2-bla U2OS cells; experiment: Arrestin assay (Arrestin Reporter EDG2-bla U2OS), inhibition of LPA-stimulated signal; assay type: cell-based; details: TangoEDG2-bla U2OS cells expressing human LPAR1; 0.25 μM LPA; read-out: Arrestin Reporter EDG2-bla U2OS Human Merged IC50
Sequence (Q92633 whole entry): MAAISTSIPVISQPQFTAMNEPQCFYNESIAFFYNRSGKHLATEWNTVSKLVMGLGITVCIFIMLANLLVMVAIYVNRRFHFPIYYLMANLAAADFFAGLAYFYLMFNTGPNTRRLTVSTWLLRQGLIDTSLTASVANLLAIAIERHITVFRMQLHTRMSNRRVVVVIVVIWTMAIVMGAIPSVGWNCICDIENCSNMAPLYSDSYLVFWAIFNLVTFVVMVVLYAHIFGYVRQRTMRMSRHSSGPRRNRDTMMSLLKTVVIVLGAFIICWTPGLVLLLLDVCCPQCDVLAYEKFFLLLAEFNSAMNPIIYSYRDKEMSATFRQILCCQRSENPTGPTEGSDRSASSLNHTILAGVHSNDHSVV
MEASURED QUANTITY: IC50 (nM)

Answered examples (3):
[
  {
    "COMPOUND": "CCOC[C@@H](CN1CCC(C(=O)Nc2ccc(Cl)cc2OC(F)F)(n2nccc2C(C)C)CC1)C(=O)O [Compound 231]",
    "UNITS SYMBOL": "nM",
    "IC50": 14.2
  },
  {
    "COMPOUND": "CC(C)c1ccnn1C1(C(=O)Nc2ccc(Cl)cc2OC(F)F)CCN(CC2(C(=O)O)CC=CC2)CC1 [Compound 74]",
    "UNITS SYMBOL": "nM",
    "IC50": 10.8
  },
  {
    "COMPOUND": "CC(C)c1ccnn1C1(C(=O)Nc2ccc(Cl)cc2OC(F)F)CCN(CC2(C(=O)O)CCN(C(=O)C[C@H]3CCOC3)CC2)CC1 [Compound 92]",
    "UNITS SYMBOL": "nM",
    "IC50": 119
  }
]

I: CC(C)c1ccnn1C1(C(=O)Nc2ccc(Cl)cc2OC(F)F)CCN(CC(C(=O)O)N2CCOCC2)CC1 (centres unmarked) [Compound 116]
II: COCCC(CN1CCC(C(=O)Nc2ccc(Cl)cc2OC(F)F)(n2nccc2C(C)C)CC1)C(=O)O (centres unmarked) [Compound 142]
Larger number for IC50: I , or II ? Please respond with the label that marks your chosen entry.
I

1: CC(C)c1ccnn1C1(C(=O)Nc2ccc(Cl)cc2OC(F)F)CCN(C2(CC(=O)O)CCOCC2)CC1 [Compound 128]
2: CC1(C)COc2cnn(C3(C(=O)Nc4ccc(Cl)cc4OC(F)F)CCN([C@H]4C[C@@H](C(=O)O)C4)CC3)c21 [Compound 103]
Which record would sort first by descending IC50, 1 or 2 ? Mark your answer with the label of the selected entry.
2
(2: 164 nM, 1: 56 nM)

P: CC1(C)CCc2cnn(C3(C(=O)Nc4ccc(Cl)cc4OC(F)F)CCN(C[C@@H]4CC[C@H]4C(=O)O)CC3)c21 [Compound 115]
Q: CC(C)c1c(F)cnn1C1(C(=O)Nc2ccc(Cl)cc2OC(F)F)CCN(C[C@]2(C(=O)O)CC[C@@H](O)CC2)CC1 [Compound 162]
Given the listed items, does P or Q have the lesser reported IC50? Select an item and report its label.
Q
(Q: 51.8 nM, P: 82.5 nM)
